src = ChEMBL document CHEMBL5149989

# METHOD: Effective permeability in PBS buffer assessed as mass retention measured after 18 hrs by PAMPA based LC-MS analysis
# Assay type: ADME
Non-standard residues stand in square brackets, D forms with d. Residues, ends and D or L forms follow the SMILES beside them. NMeL = CN[C@@H](CC(C)C)C(=O)O; Nva = CCC[C@H](N)C(=O)O; Sar = CNCC(=O)O
PROPERTY_MEASURED: Activity (%)

- CCC[C@@H]1NC(=O)[C@H](CC(C)C)N(C)C(=O)[C@H](CC(C)C)N(C)C(=O)[C@H](CC(C)C)N(C)C(=O)[C@H](CC(C)C)N(C)C(=O)[C@@H](C)NC(=O)[C@H](CCC(N)=O)NC(=O)[C@H](CC(C)C)N(C)C(=O)[C@H](C(C)C)NC(=O)[C@H](CC(C)C)N(C)C(=O)CN(C)C1=O (cyclo([NMeL][NMeL][NMeL][NMeL][Nva][Sar][NMeL]V[NMeL]Q[dA])): 75

* * *

# METHOD: Permeability across apical to basal side in human Caco-2 cells measured at 0.5 to 2 hrs by LC-MS analysis
# Type: ADME, cell-based
# MEASUREMENT_PARAMETERS: time 0.5-2 hrs, read-out: permeability
Non-standard residues stand in square brackets, D forms with d. Residues, ends and D or L forms follow the SMILES beside them. NMeL = CN[C@@H](CC(C)C)C(=O)O; Nva = CCC[C@H](N)C(=O)O; Sar = CNCC(=O)O
PROPERTY_MEASURED: Papp A→B (×10⁻⁶ cm/s)

• CC(C)NCC(O)COc1cccc2ccccc12 (centres undefined) = 20
• CCC[C@@H]1NC(=O)[C@H](CC(C)C)N(C)C(=O)[C@H](CC(C)C)N(C)C(=O)[C@H](CC(C)C)N(C)C(=O)[C@H](CC(C)C)N(C)C(=O)[C@@H](C)NC(=O)[C@H](CCC(N)=O)NC(=O)[C@H](CC(C)C)N(C)C(=O)[C@H](C(C)C)NC(=O)[C@H](CC(C)C)N(C)C(=O)CN(C)C1=O (cyclo([NMeL][NMeL][NMeL][NMeL][Nva][Sar][NMeL]V[NMeL]Q[dA])) = 0.12
• CCC[C@@H]1NC(=O)[C@H](CC(C)C)N(C)C(=O)[C@H](C(C)C)N(C)C(=O)[C@H](CC(C)C)N(C)C(=O)[C@H](CC(C)C)N(C)C(=O)[C@@H](C)NC(=O)[C@H](CCC(N)=O)NC(=O)[C@H](CC(C)C)N(C)C(=O)[C@H](C(C)C)NC(=O)[C@H](CC(C)C)N(C)C(=O)CN(C)C1=O = 0.05
• CCC[C@@H]1NC(=O)[C@H](CC(C)C)N(C)C(=O)[C@H](CC(C)C)N(C)C(=O)[C@H](CC(C)C)N(C)C(=O)[C@H](CC(C)C)N(C)C(=O)[C@@H](C)NC(=O)[C@H](C)NC(=O)[C@H](CC(C)C)N(C)C(=O)[C@H](C(C)C)NC(=O)[C@H](CC(C)C)N(C)C(=O)CN(C)C1=O = 0.07

* * *

# METHOD: Ratio of drug level in brain to plasma in ICR mouse plasma at 1 uM preincubated for 10 mins followed by compound addition measured after 60 mins by LC-MS/MS analysis
# Format: ADME, cell-free
# MEASUREMENT_PARAMETERS: read-out: BPR
Non-standard residues stand in square brackets, D forms with d. Residues, ends and D or L forms follow the SMILES beside them. NMeL = CN[C@@H](CC(C)C)C(=O)O; NMeV = CN[C@H](C(=O)O)C(C)C; Nva = CCC[C@H](N)C(=O)O; Sar = CNCC(=O)O
PROPERTY_MEASURED: Kp at 1 h, 1 µM

• CCC[C@@H]1NC(=O)[C@H](CC(C)C)N(C)C(=O)[C@H](C(C)C)N(C)C(=O)[C@H](CC(C)C)N(C)C(=O)[C@H](CC(C)C)N(C)C(=O)[C@@H](C)NC(=O)[C@H](C)NC(=O)[C@H](CC(C)C)N(C)C(=O)[C@H](C(C)C)NC(=O)[C@H](CC(C)C)N(C)C(=O)CN(C)C1=O (cyclo(A[dA][NMeL][NMeL][NMeV][NMeL][Nva][Sar][NMeL]V[NMeL])) = 0.62

* * *

# METHOD: Clearance in ICR mouse at 20 mg/kg, po measured after 0.25 to 24 hrs by LC-MS/MS analysis
# Format: ADME, organism-based
# MEASUREMENT_PARAMETERS: in vivo, time 0.25-24 hrs
Non-standard residues stand in square brackets, D forms with d. Residues, ends and D or L forms follow the SMILES beside them. NMeL = CN[C@@H](CC(C)C)C(=O)O; NMeV = CN[C@H](C(=O)O)C(C)C; Nva = CCC[C@H](N)C(=O)O; Sar = CNCC(=O)O
PROPERTY_MEASURED: CL/F (mL/min/kg)

- CCC[C@@H]1NC(=O)[C@H](CC(C)C)N(C)C(=O)[C@H](C(C)C)N(C)C(=O)[C@H](CC(C)C)N(C)C(=O)[C@H](CC(C)C)N(C)C(=O)[C@@H](C)NC(=O)[C@H](C)NC(=O)[C@H](CC(C)C)N(C)C(=O)[C@H](C(C)C)NC(=O)[C@H](CC(C)C)N(C)C(=O)CN(C)C1=O (cyclo(A[dA][NMeL][NMeL][NMeV][NMeL][Nva][Sar][NMeL]V[NMeL])): 82

* * *

# METHOD: Half life in ICR mouse at 20 mg/kg, po measured after 0.25 to 24 hrs by LC-MS/MS analysis
# Assay type: ADME, organism-based
# MEASUREMENT_PARAMETERS: in vivo, time 0.25-24 hrs
Non-standard residues stand in square brackets, D forms with d. Residues, ends and D or L forms follow the SMILES beside them. NMeL = CN[C@@H](CC(C)C)C(=O)O; NMeV = CN[C@H](C(=O)O)C(C)C; Nva = CCC[C@H](N)C(=O)O; Sar = CNCC(=O)O
PROPERTY_MEASURED: half-life (h)

- CCC[C@@H]1NC(=O)[C@H](CC(C)C)N(C)C(=O)[C@H](C(C)C)N(C)C(=O)[C@H](CC(C)C)N(C)C(=O)[C@H](CC(C)C)N(C)C(=O)[C@@H](C)NC(=O)[C@H](C)NC(=O)[C@H](CC(C)C)N(C)C(=O)[C@H](C(C)C)NC(=O)[C@H](CC(C)C)N(C)C(=O)CN(C)C1=O (cyclo(A[dA][NMeL][NMeL][NMeV][NMeL][Nva][Sar][NMeL]V[NMeL])): 3.1

* * *

# METHOD: Permeability across apical to basal side in human Caco-2 cells preincubated with verapamil for 30 mins followed by compound addition measured at 0.5 to 2 hrs by LC-MS analysis
# Format: ADME, cell-based
# MEASUREMENT_PARAMETERS: Caco-2, with verapamil (concentration not stated), time 0.5-2 hrs, read-out: permeability
Non-standard residues stand in square brackets, D forms with d. Residues, ends and D or L forms follow the SMILES beside them. NMeL = CN[C@@H](CC(C)C)C(=O)O; NMeV = CN[C@H](C(=O)O)C(C)C; Nva = CCC[C@H](N)C(=O)O; Sar = CNCC(=O)O
// Papp A→B lookup, one value per entry
PROPERTY_MEASURED: Papp A→B (nm/s)

• CCC[C@@H]1NC(=O)[C@H](CC(C)C)N(C)C(=O)[C@H](CC(C)C)N(C)C(=O)[C@H](CC(C)C)N(C)C(=O)[C@H](CC(C)C)N(C)C(=O)[C@@H](C)NC(=O)[C@H](C)NC(=O)[C@H](CC(C)C)N(C)C(=O)[C@H](C(C)C)NC(=O)[C@H](CC(C)C)N(C)C(=O)CN(C)C1=O = 3.4
• CCC[C@@H]1NC(=O)[C@H](CC(C)C)N(C)C(=O)[C@H](C(C)C)N(C)C(=O)[C@H](CC(C)C)N(C)C(=O)[C@H](CC(C)C)N(C)C(=O)[C@@H](C)NC(=O)[C@H](C)NC(=O)[C@H](CC(C)C)N(C)C(=O)[C@H](C(C)C)NC(=O)[C@H](CC(C)C)N(C)C(=O)CN(C)C1=O (cyclo(A[dA][NMeL][NMeL][NMeV][NMeL][Nva][Sar][NMeL]V[NMeL])) = 6.9
• CCC[C@@H]1NC(=O)[C@H](CC(C)C)N(C)C(=O)[C@H](C(C)C)N(C)C(=O)[C@H](CC(C)C)N(C)C(=O)[C@H](CC(C)C)N(C)C(=O)[C@@H](C)NC(=O)[C@H](CCC(N)=O)NC(=O)[C@H](CC(C)C)N(C)C(=O)[C@H](C(C)C)NC(=O)[C@H](CC(C)C)N(C)C(=O)CN(C)C1=O = 0.7
• CCC[C@@H]1NC(=O)[C@H](CC(C)C)N(C)C(=O)[C@H](CC(C)C)N(C)C(=O)[C@H](CC(C)C)N(C)C(=O)[C@H](CC(C)C)N(C)C(=O)[C@@H](C)NC(=O)[C@H](CCC(N)=O)NC(=O)[C@H](CC(C)C)N(C)C(=O)[C@H](C(C)C)NC(=O)[C@H](CC(C)C)N(C)C(=O)CN(C)C1=O (cyclo([NMeL][NMeL][NMeL][NMeL][Nva][Sar][NMeL]V[NMeL]Q[dA])) = 1.8
